# credit: the supplement of paper PMC10724198

Tested on: Saccharomyces cerevisiae;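 further: PSI is a weighted mean of sequencing reads over stability bins, variants kept only with over 10 reads, mCherry proximal and sfGFP distal, peptide attached via GGGS linker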
MEASUREMENT PROTOCOL: protein stability index of tFT-peptide fusion (C-terminal peptide) (PSI (0-1 scale)); higher = more stable (slower turnover)
CONDITION LABEL: genetic background: wild type; temperature: 30 C
ENDPOINT LABEL: protein stability index
Reply: number alone, nothing else.

For orientation, consider the following solved cases.
RGALGVVWAGLD    0.638
DGECVLGVFVGA    0.706
LRVNGIVTVSGF    0.749
AQSYPHPPPPPP    0.644
YEPNYKEKKTQY    0.69

QUERY: Using the record for YQCPASSPVLSA , report its protein stability index.
RESULT: 0.719

QUERY: Do the same for GPVLAVTRIVCK please
RESULT: 0.552

QUERY: Do the same for SFILPFISPLLF please
RESULT: 0.565

QUERY: Do the same for GRGLGRVMRGRV please
RESULT: 0.618

QUERY: Do the same for LRGILGTLINGV please
RESULT: 0.609

QUERY: Do the same for LPLAMTTIGISL please
RESULT: 0.675

QUERY: Do the same for QLGRVSRLVGVC please
RESULT: 0.537

QUERY: Do the same for CRTIILCLLTNL please
RESULT: 0.498

QUERY: Do the same for DSSAFVPATILD please
RESULT: 0.705

QUERY: Do the same for LLPLAPSPPPPH please
RESULT: 0.71
